Each recorded value in this set is attributed to ChEMBL document CHEMBL1134932.

Reported Ki values, Vasopressin V2 receptor (Homo sapiens, UniProt P30518).
endpoint: Ki (nM)

                                   compound  reading
0  O=C(Nc1ccc(C(=O)N2C[C@H]3C4CCC(C4)N3Cc3ccccc32)c(Cl)c1)c1ccccc1-c1ccccc1 (stereo not given in full)       30
1  O=C(Nc1ccc(C(=O)N2C[C@@H]3C4CCC(C4)N3Cc3cc(Cl)ccc32)cc1)c1ccccc1F (stereo not given in full)      180
2  Cc1ccc(-c2ccccc2C(=O)Nc2ccc(C(=O)N3C[C@@H]4C5CCC(C5)N4Cc4cc(Cl)ccc43)cc2)cc1 (stereo not given in full)       13
3  O=C(Nc1ccc(C(=O)N2C[C@@H]3C4CCC(C4)N3Cc3cc(Cl)ccc32)cc1)c1ccccc1Cl (stereo not given in full)       32
4  O=C(Nc1ccc(C(=O)N2C[C@@H]3C4CCC(C4)N3Cc3ccccc32)c(Cl)c1)c1ccccc1-c1ccccc1 (stereo not given in full)        9

* * *

Property: IC50; scope: individual molecules
Biological target: Vasopressin V2 receptor (Homo sapiens)
Sequence (P30518 whole entry): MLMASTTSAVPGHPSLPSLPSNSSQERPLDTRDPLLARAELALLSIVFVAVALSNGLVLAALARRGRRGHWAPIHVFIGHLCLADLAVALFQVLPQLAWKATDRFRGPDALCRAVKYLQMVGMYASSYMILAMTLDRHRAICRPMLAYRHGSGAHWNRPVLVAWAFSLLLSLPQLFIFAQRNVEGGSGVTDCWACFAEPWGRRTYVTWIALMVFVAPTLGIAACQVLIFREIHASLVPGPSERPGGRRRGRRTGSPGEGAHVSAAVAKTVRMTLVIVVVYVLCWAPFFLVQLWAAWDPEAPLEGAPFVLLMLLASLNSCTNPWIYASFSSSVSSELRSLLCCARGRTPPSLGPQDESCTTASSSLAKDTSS
Experiment: Inhibition of [3H]Arg-vasopressin binding to recombinant human vasopressin V2 receptor
endpoint: IC50

                                   molecule                           system_tested  endpoint  reading
0  Cc1ccc(F)cc1C(=O)Nc1ccc(C(=O)N2Cc3cccn3Cc3ccccc32)c(Cl)c1 [LIXIVAPTAN]  Vasopressin V2 receptor (Homo sapiens)      IC50     5 nM
1  O=C(Nc1ccc(C(=O)N2CC3C4CCC(CC4)N3Cc3ccccc32)c(Cl)c1)c1ccccc1-c1ccccc1 (stereo not drawn)  Vasopressin V2 receptor (Homo sapiens)      IC50     4 nM
2  O=C(Nc1ccc(C(=O)N2C[C@@H]3C4CCC(C4)N3Cc3cc(Cl)ccc32)cc1)c1ccccc1Cl (stereo partly drawn)  Vasopressin V2 receptor (Homo sapiens)      IC50    10 nM
3  Cc1ccc(-c2ccccc2C(=O)Nc2ccc(C(=O)N3C[C@@H]4C5CCC(C5)N4Cc4cc(Cl)ccc43)c(Cl)c2)cc1 (stereo partly drawn)  Vasopressin V2 receptor (Homo sapiens)      IC50    30 nM
4  O=C(Nc1ccc(C(=O)N2C[C@@H]3C4CCC(C4)N3Cc3cc(Cl)ccc32)cc1)c1ccccc1F (stereo partly drawn)  Vasopressin V2 receptor (Homo sapiens)      IC50    26 nM
5  Cc1cc(F)cc(C(=O)Nc2ccc(C(=O)N3C[C@@H]4C5CCC(CC5)N4Cc4ccccc43)c(Cl)c2)c1  Vasopressin V2 receptor (Homo sapiens)      IC50    19 nM
6  O=C(Nc1ccc(C(=O)N2C[C@@H]3C4CCC(C4)N3Cc3cc(Cl)ccc32)cc1)c1ccccc1C(F)(F)F (stereo partly drawn)  Vasopressin V2 receptor (Homo sapiens)      IC50     7 nM
7  O=C(Nc1ccc(C(=O)N2C[C@@H]3C4CCC(CC4)N3Cc3cc(Cl)ccc32)cc1)c1ccccc1Cl  Vasopressin V2 receptor (Homo sapiens)      IC50    13 nM

* * *

Property: Ki; scope: individual compounds
Target: Vasopressin V1a receptor (Homo sapiens, UniProt P37288)
Sequence (P37288 whole entry): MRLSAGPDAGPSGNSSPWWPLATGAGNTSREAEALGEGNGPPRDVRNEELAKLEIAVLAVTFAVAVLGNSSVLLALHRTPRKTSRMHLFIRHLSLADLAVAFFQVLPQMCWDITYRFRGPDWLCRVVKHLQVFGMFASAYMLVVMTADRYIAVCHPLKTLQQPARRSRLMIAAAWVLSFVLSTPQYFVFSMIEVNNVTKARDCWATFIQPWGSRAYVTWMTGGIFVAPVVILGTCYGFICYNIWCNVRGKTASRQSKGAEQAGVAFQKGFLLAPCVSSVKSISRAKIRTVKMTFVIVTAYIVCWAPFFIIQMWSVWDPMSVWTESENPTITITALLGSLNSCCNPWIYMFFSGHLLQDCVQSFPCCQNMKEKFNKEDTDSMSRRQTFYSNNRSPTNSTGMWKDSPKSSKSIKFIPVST
Test: Inhibition of AVP mediated activation of human vasopressin V1a receptor expressed in HEK293 cells
Type: cell-based
endpoint: Ki (nM)

In [3]: df
Out[3]:
                                   compound                             system_tested  reading
0  Cc1ccc(-c2ccccc2C(=O)Nc2ccc(C(=O)N3C[C@@H]4C5CCC(C5)N4Cc4cc(Cl)ccc43)cc2)cc1 (some centres undefined)  Vasopressin V1a receptor (Homo sapiens, UniProt P37288)       23
1  O=C(Nc1ccc(C(=O)N2C[C@@H]3C4CCC(C4)N3Cc3ccccc32)c(Cl)c1)c1ccccc1-c1ccccc1 (some centres undefined)  Vasopressin V1a receptor (Homo sapiens, UniProt P37288)      130
2  O=C(Nc1ccc(C(=O)N2C[C@@H]3C4CCC(C4)N3Cc3cc(Cl)ccc32)cc1)c1ccccc1Cl (some centres undefined)  Vasopressin V1a receptor (Homo sapiens, UniProt P37288)      130
3  O=C(Nc1ccc(C(=O)N2C[C@@H]3C4CCC(C4)N3Cc3cc(Cl)ccc32)cc1)c1ccccc1F (some centres undefined)  Vasopressin V1a receptor (Homo sapiens, UniProt P37288)     2600

* * *

Property: IC50; scope: individual compounds
Target: UniProt:P37288
Experiment: Inhibition of [3H]Arg-vasopressin binding to recombinant human vasopressin V1a receptor
endpoint: IC50 (nM)

>>> print(df.to_string())
                                   compound   system_tested  unit_string  reading
0  O=C(Nc1ccc(C(=O)N2C[C@@H]3C4CCC(C4)N3Cc3cc(Cl)ccc32)cc1)c1ccccc1C(F)(F)F (some centres not stated)  UniProt:P37288           nM        4
1  O=C(Nc1ccc(C(=O)N2C[C@@H]3C4CCC(C4)N3Cc3cc(Cl)ccc32)cc1)c1ccccc1Cl (some centres not stated)  UniProt:P37288           nM        5
2  O=C(Nc1ccc(C(=O)N2C[C@@H]3C4CCC(C4)N3Cc3cc(Cl)ccc32)cc1)c1ccccc1F (some centres not stated)  UniProt:P37288           nM       68
3  Cc1ccc(F)cc1C(=O)Nc1ccc(C(=O)N2Cc3cccn3Cc3ccccc32)c(Cl)c1  UniProt:P37288           nM      150
4  Cc1ccc(-c2ccccc2C(=O)Nc2ccc(C(=O)N3C[C@@H]4C5CCC(C5)N4Cc4cc(Cl)ccc43)c(Cl)c2)cc1 (some centres not stated)  UniProt:P37288           nM       35
5  O=C(Nc1ccc(C(=O)N2C[C@@H]3C4CCC(CC4)N3Cc3cc(Cl)ccc32)cc1)c1ccccc1Cl  UniProt:P37288           nM       35

* * *

Property: Cmax; scope: individual molecules
Test: The maximum plasma levels for the compounds were determined by LC-MS.
Type: ADME, organism-based
Details: rat
endpoint: Cmax

>>> df
                                   molecule  reading
0  O=C(Nc1ccc(C(=O)N2C[C@@H]3C4CCC(C4)N3Cc3ccccc32)c(Cl)c1)c1ccccc1-c1ccccc1 (stereo partly drawn)   650 nM
1  Cc1ccc(-c2ccccc2C(=O)Nc2ccc(C(=O)N3C[C@@H]4C5CCC(C5)N4Cc4cc(Cl)ccc43)cc2)cc1 (stereo partly drawn)   320 nM
2  O=C(Nc1ccc(C(=O)N2C[C@H]3C4CCC(C4)N3Cc3ccccc32)c(Cl)c1)c1ccccc1-c1ccccc1 (stereo partly drawn)   230 nM
